The values you see were collected from patent US20250034151A1.

- experiment: Pharmacokinetics on single dose in mice (intravenous and oral)
- Assay type: in vivo, ICR mice
- assay setup: male, ICR, mouse, plasma, Intravenous, 1 mg/kg
measurement label: AUC(0-t)
Please answer using the number first and the unit second.

Give its AUC(0-t) value. Item: C=CCn1c(=O)c2cnc(Nc3ccc(N4CC5CC(C4)N5C)cc3)nc2n1-c1cccc(C(C)(C)O)n1 [Compound 27]
134 ng·h/mL

* * *

- experiment: Liver microsomes in vitro stability (mouse)
- Format: in vitro ADME
- assay setup: read-out: T1/2/min
measurement label: half-life at 1 µM

Known half-life at 1 µM results, listed for orientation:
compound: C=CCn1c(=O)c2cnc(Nc3ccc(N4CCC(N(C)C5CN6CCC5CC6)CC4)cc3)nc2n1-c1cccc(N=S(C)(C)=O)n1 (stereo not drawn)
half-life at 1 µM: > 2 h
//
compound: C=CCn1c(=O)c2cnc(Nc3ccc(N4CC5CC(C4)N5C)cc3)nc2n1-c1ccc2cnn(CC)c2n1
half-life at 1 µM: > 2 h

Give its half-life at 1 µM value. Item: C=CCn1c(=O)c2cnc(Nc3ccc4c(c3)CN(C3CCN(C)CC3)C4=O)nc2n1-c1cccc(N=S(C)(C)=O)n1
> 2 h
